Hello, the source for this data is paper PMC4081100, in case you need it.

- Tested System: GST-VND3 NAC domain (Arabidopsis thaliana, UniProt Q9FH59 12-162)
- Sequence: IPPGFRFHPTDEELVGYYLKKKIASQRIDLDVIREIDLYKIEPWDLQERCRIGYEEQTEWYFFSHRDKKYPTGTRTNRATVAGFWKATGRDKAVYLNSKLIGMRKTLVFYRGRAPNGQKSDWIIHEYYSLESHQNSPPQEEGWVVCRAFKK
- Method Summary: universal protein binding microarray (PBM); high values mean tight binding
- Test Parameters: protein: recombinant; tags: GST; chain copies: 2; dsDNA, one strand shown
Property Name: binding signal (E-score)
Numeric answer only, unit E-score assumed.

Use the examples below as a reference point.
{"Ordered Residues": "AGACGCAA", "Units": "E-score", "Measured": 0.295}
{"Ordered Residues": "TGAAGTAA", "Units": "E-score", "Measured": 0.131}
{"Ordered Residues": "ATAGCGTG", "Units": "E-score", "Measured": 0.218}
{"Ordered Residues": "ACGCAAGA", "Units": "E-score", "Measured": 0.252}
{"Ordered Residues": "ACACGCAA", "Units": "E-score", "Measured": 0.477}
{"Ordered Residues": "GTACGCGA", "Units": "E-score", "Measured": 0.11}

Measured binding signal of `AGACACGC` : 0.0792

====

- Tested System: GST-ANAC092(1-285) full length (Arabidopsis thaliana, UniProt Q9FKA0 1-285)
- Sequence: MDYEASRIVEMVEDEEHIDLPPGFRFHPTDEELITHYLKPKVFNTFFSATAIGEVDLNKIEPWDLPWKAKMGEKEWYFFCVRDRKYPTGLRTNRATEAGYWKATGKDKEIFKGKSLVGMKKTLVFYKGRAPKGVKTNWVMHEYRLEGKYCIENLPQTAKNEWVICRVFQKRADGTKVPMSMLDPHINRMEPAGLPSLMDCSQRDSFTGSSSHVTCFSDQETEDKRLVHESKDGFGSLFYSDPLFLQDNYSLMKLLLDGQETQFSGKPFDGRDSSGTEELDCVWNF
- Method Summary: universal protein binding microarray (PBM); high values mean tight binding
- Test Parameters: protein: recombinant; tags: GST; chain copies: 2; dsDNA, one strand shown
Property Name: binding signal (E-score)
Numeric answer only, unit E-score assumed.

{"Ordered Residues": "ACGTCACT", "Tested System": "GST-ANAC092(1-285) full length (Arabidopsis thaliana, UniProt Q9FKA0 1-285)", "Property Name": "binding signal", "Units": "E-score", "Measured": 0.406}
{"Ordered Residues": "GTAAGAAA", "Tested System": "GST-ANAC092(1-285) full length (Arabidopsis thaliana, UniProt Q9FKA0 1-285)", "Property Name": "binding signal", "Units": "E-score", "Measured": 0.332}

With GST-ANAC092(1-285) full length (Arabidopsis thaliana, UniProt Q9FKA0 1-285) as the test system, `GCACGTAA` showed binding signal of 0.467

With GST-ANAC092(1-285) full length (Arabidopsis thaliana, UniProt Q9FKA0 1-285) as the test system, `CTAGTCAA` showed binding signal of 0.0883

====

Reported binding signal by item:
- Tested System: GST-VND7 NAC domain (Arabidopsis thaliana, UniProt Q9C8W9 9-158)
- Sequence: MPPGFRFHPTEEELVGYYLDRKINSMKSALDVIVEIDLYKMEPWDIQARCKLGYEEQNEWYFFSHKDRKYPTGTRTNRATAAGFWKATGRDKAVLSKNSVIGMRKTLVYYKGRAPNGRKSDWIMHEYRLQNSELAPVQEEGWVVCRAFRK
- Method Summary: universal protein binding microarray (PBM); transcription factors of Arabidopsis thaliana; high values mean tight binding
- Test Parameters: protein: recombinant; tags: GST; chain copies: 2; dsDNA, one strand shown
Numeric answer only, unit E-score assumed.

Use the examples below as a reference point.
{"Ordered Residues": "ACGCCAAC", "Property Name": "binding signal", "Measured": 0.118}
{"Ordered Residues": "ACTAAGTA", "Property Name": "binding signal", "Measured": 0.218}

Here is the next item to consider.
Measured binding signal of `CTTAAGTA` : 0.182
